# System: DOCA-Na. rat
# experimental_details: Comparative antihypertensive activity of polyether ionophores in the DOCA-Na rat (Example 3, Table III)
# Type: in vivo
# conditions_used: oral, five-day period, daily dose 1/100 of oral LD50 up to 10 mg/kg/day
I'd be grateful if you could share measured ONSET TO MAX. RESPONSE for these entries.
Give bare numbers, in days.

Check out these entries, answers already filled in.
{"columns": ["compound", "quantitative_result"],
 "data": [
  ["CC/C(=C\\C=C\\[C@@H]1C=C[C@@H]2[C@@H](CC)CC[C@H]2[C@@H]1C(=O)c1ccc[nH]1)[C@@H]1O[C@@H]([C@@H](C)C(=O)O)CC[C@@H]1C [X-14547A]", 2],
  ["CO[C@@H]1C[C@@H](C[C@H]2CC[C@H](C)[C@H]([C@@H](C)C(=O)O)O2)O[C@]2(O[C@](C)([C@H]3CC[C@@](C)([C@@H]4O[C@@H]([C@H]5O[C@@](O)(CO)[C@H](C)C[C@@H]5C)C[C@@H]4C)O3)C[C@H]2C)[C@@H]1C", 3],
  ["CC[C@@H](C(=O)[C@@H](C)[C@@H](O)[C@H](C)CCc1c(Br)cc(C)c(O)c1C(=O)O)[C@H]1O[C@](CC)([C@H]2CC[C@](O)(CC)[C@H](C)O2)C[C@@H]1C", 4],
  ["CNc1ccc2oc(C[C@H]3O[C@@]4(CC[C@H]3C)O[C@H]([C@H](C)C(=O)c3ccc[nH]3)[C@H](C)C[C@H]4C)nc2c1C(=O)O", 4]
]}

Let us move to another entry and its ONSET TO MAX. RESPONSE.
If you can, please state the reported ONSET TO MAX. RESPONSE value of COC1CCC(OC2C(C)C(O)(C(C)C(=O)O)OC(CC3CC(OC)C(C)C4(O3)OC(C)(C3CCC(C5CCC(C6OC(C)(O)C(C)C(OC)C6C)O5)O3)C(OC)C4C)C2(C)OC)OC1C (centres unmarked) .
4

* * *

For each of the compounds below, state its LD50.
# experimental_details: Oral (per os) toxicity (LD50)
# Type: in vivo
One number for each entry, in mg/kg.

Consider the reported LD50 for these compounds:
{"columns": ["compound", "LD50 (mg/kg)"],
 "data": [
  ["CC/C(=C\\C=C\\[C@@H]1C=C[C@@H]2[C@@H](CC)CC[C@H]2[C@@H]1C(=O)c1ccc[nH]1)[C@@H]1O[C@@H]([C@@H](C)C(=O)O)CC[C@@H]1C [X-14547A]", 129],
  ["CO[C@@H]1C[C@@H](C[C@H]2CC[C@H](C)[C@H]([C@@H](C)C(=O)O)O2)O[C@]2(O[C@](C)([C@H]3CC[C@@](C)([C@@H]4O[C@@H]([C@H]5O[C@@](O)(CO)[C@H](C)C[C@@H]5C)C[C@@H]4C)O3)C[C@H]2C)[C@@H]1C", 190]
]}

Lab note: next compound to report on.
Look up LD50: COC1CCC(OC2C(C)C(O)(C(C)C(=O)O)OC(CC3CC(OC)C(C)C4(O3)OC(C)(C3CCC(C5CCC(C6OC(C)(O)C(C)C(OC)C6C)O5)O3)C(OC)C4C)C2(C)OC)OC1C (stereo not shown)
14
